Reference for the values: PubChem BioAssay AID1963440

- System: NCI-H1417 complex spheroids, growth % test/control
- METHOD_NOTES: Anticancer human tumor NCI-H1417 cell line growth inhibition [Asc];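 also: spheroids exposed to compounds for 7 days; 100% = DMSO vehicle control wells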
- MEASUREMENT_PARAMETERS: second compound 0.03 µM; first compound 0.316 µM; stronger effect = lower value
viability, T/C values, listed per item

{"columns": ["MOLECULE", "TARGET_OR_TEST_SYSTEM", "viability, T/C, %"],
 "data": [
  ["CNC(C)C(=O)NC1CN(S(=O)(=O)c2cccc(S(=O)(=O)N3CCC4CCC(C(=O)NC(c5ccccc5)c5ccccc5)N4C(=O)C(NC(=O)C(C)NC)C3)c2)CCC2CCC(C(=O)NC(c3ccccc3)c3ccccc3)N2C1=O (stereo not drawn) + CCN1C(C(=O)NC23CCC(C(=O)O)(CC2)CC3)C(c2cccc(Cl)c2F)C2(C(=O)Nc3cc(Cl)ccc32)C12CCCCC2", "NCI-H1417 complex spheroids, growth % test/control", 99.8],
  ["COc1c(OCCCN2CCOCC2)ccc2c3n(c(=NC(=O)c4cnc(N)nc4)nc12)CCN3 + CCN1C(C(=O)NC23CCC(C(=O)O)(CC2)CC3)C(c2cccc(Cl)c2F)C2(C(=O)Nc3cc(Cl)ccc32)C12CCCCC2", "NCI-H1417 complex spheroids, growth % test/control", 96.7],
  ["C#Cc1c(F)ccc2cc(O)cc(-c3ncc4c(N5CC6CCC(C5)N6)nc(OCC56CCCN5CC(F)C6)nc4c3F)c12 (stereo not drawn) + CCN1C(C(=O)NC23CCC(C(=O)O)(CC2)CC3)C(c2cccc(Cl)c2F)C2(C(=O)Nc3cc(Cl)ccc32)C12CCCCC2", "NCI-H1417 complex spheroids, growth % test/control", 106],
  ["O=C(c1ccc(F)c(F)c1Nc1ccc(I)cc1F)N1CC(O)([C@@H]2CCCCN2)C1 + CCN1C(C(=O)NC23CCC(C(=O)O)(CC2)CC3)C(c2cccc(Cl)c2F)C2(C(=O)Nc3cc(Cl)ccc32)C12CCCCC2", "NCI-H1417 complex spheroids, growth % test/control", 88.2],
  ["O=C(c1cc(Cc2n[nH]c(=O)c3ccccc23)ccc1F)N1CCN(C(=O)C2CC2)CC1 + CCN1C(C(=O)NC23CCC(C(=O)O)(CC2)CC3)C(c2cccc(Cl)c2F)C2(C(=O)Nc3cc(Cl)ccc32)C12CCCCC2", "NCI-H1417 complex spheroids, growth % test/control", 107],
  ["C=C(F)C(=O)N1CCN(c2nc(OCC3CCCN3C)nc3c2CCN(c2cccc4cccc(Cl)c24)C3)CC1CC#N (stereo not drawn) + CCN1C(C(=O)NC23CCC(C(=O)O)(CC2)CC3)C(c2cccc(Cl)c2F)C2(C(=O)Nc3cc(Cl)ccc32)C12CCCCC2", "NCI-H1417 complex spheroids, growth % test/control", 102],
  ["CCN1CCN(Cc2ccc(Nc3ncc(F)c(-c4cc(F)c5nc(C)n(C(C)C)c5c4)n3)nc2)CC1 + CCN1C(C(=O)NC23CCC(C(=O)O)(CC2)CC3)C(c2cccc(Cl)c2F)C2(C(=O)Nc3cc(Cl)ccc32)C12CCCCC2", "NCI-H1417 complex spheroids, growth % test/control", 97.8],
  ["C=CC(=O)N1CCN(c2nc(=O)n(-c3c(C)ccnc3C(C)C)c3nc(-c4c(O)cccc4F)c(F)cc23)C(C)C1 (stereo not drawn) + CCN1C(C(=O)NC23CCC(C(=O)O)(CC2)CC3)C(c2cccc(Cl)c2F)C2(C(=O)Nc3cc(Cl)ccc32)C12CCCCC2", "NCI-H1417 complex spheroids, growth % test/control", 109]
]}
